System: CYP3A4
Test: CYP induction (enzyme activity) in cryopreserved human hepatocytes, CYP3A4
Assay type: in vitro ADME
Conditions: human, plated cryopreserved human hepatocytes, donor two, 5 µM
reported property: fold induction at 72 h, 5 µM
Please state the value as a number alone, without comment.

The reported fold induction at 72 h, 5 µM of the compound C[C@]12CC[C@@H]3c4ccc(B(O)O)cc4C[C@@H](CCCCCCCCC[S+]([O-])CCCC(F)(F)C(F)(F)F)[C@H]3[C@@H]1CC[C@@H]2O (stereo partly shown) was 3.01

---

Assay: 4-week repeat-dose toxicity/TK study in dogs
Format: in vivo, beagle dogs
Conditions: male, beagle, dog, plasma, po, 200 mg/kg/day, day 28, PO 200 mg/kg/day, M
reported property: AUC(0-t) (ng·h/mL)
Number in ng·h/mL, nothing else.

Memo: C[C@]12CC[C@@H]3c4ccc(B(O)O)cc4C[C@@H](CCCCCCCCC[S+]([O-])CCCC(F)(F)C(F)(F)F)[C@H]3[C@@H]1CC[C@@H]2O (stereo partly shown) [ZB716, fulvestrant-3-boronic acid] , reported AUC(0-t): 11000

---

Test system: CYP1A2
Assay: CYP induction (enzyme activity) in cryopreserved human hepatocytes, CYP1A2
Settings: human, plated cryopreserved human hepatocytes, Fold Induction, donor one, 1.5 µM
reported property: fold induction at 72 h, 1.5 µM

For record C[C@]12CC[C@@H]3c4ccc(B(O)O)cc4C[C@@H](CCCCCCCCC[S+]([O-])CCCC(F)(F)C(F)(F)F)[C@H]3[C@@H]1CC[C@@H]2O (stereo partly shown) the listed fold induction at 72 h, 1.5 µM is 2.52

---

Test: Single-dose PK and bioavailability of ZB716 in rats
Assay type: in vivo
Settings: male, Sprague Dawley, rat, plasma; single dose, PO 400 mg/kg/day, M; read-out: Tmax (median)
reported property: Tmax (min)
Number in min, nothing else.

Tmax for C[C@]12CC[C@@H]3c4ccc(B(O)O)cc4C[C@@H](CCCCCCCCC[S+]([O-])CCCC(F)(F)C(F)(F)F)[C@H]3[C@@H]1CC[C@@H]2O (stereo partly shown) is 30

---

Test: 4-week repeat-dose toxicity/TK study in rats
Assay type: in vivo, Sprague Dawley rats
Conditions: female, Sprague Dawley (Crl: CD (SD)), rat, plasma, po, 25 mg/kg/day, day 28, PO 25 mg/kg/day, Female
reported property: Tmax (h)
Please give a number only; it is taken to be in h.

Looking up C[C@]12CC[C@@H]3c4ccc(B(O)O)cc4C[C@@H](CCCCCCCCC[S+]([O-])CCCC(F)(F)C(F)(F)F)[C@H]3[C@@H]1CC[C@@H]2O (stereo partly shown) , I found its Tmax recorded as 1

---

Test: 4-week repeat-dose toxicity/TK study in rats
Assay type: in vivo, Sprague Dawley rats
Conditions: male, Sprague Dawley (Crl: CD (SD)), rat, plasma, po, 400 mg/kg/day, day 28, PO 400 mg/kg/day, Male
reported property: Cmax (ng/mL)
Lab book: enter the figure in ng/mL, no units written.

The reported Cmax of the compound C[C@]12CC[C@@H]3c4ccc(B(O)O)cc4C[C@@H](CCCCCCCCC[S+]([O-])CCCC(F)(F)C(F)(F)F)[C@H]3[C@@H]1CC[C@@H]2O (stereo partly shown) was 4060

---

Assay: 7-day repeated-dose PK in rats
Format: in vivo, Sprague Dawley rats
Settings: male, Sprague Dawley, rat, plasma, po, 100 mg/kg/day, day 1, PO 100 mg/kg/day, M
reported property: Cmax (ng/mL)
Expressed in ng/mL, but write only the number.

For record C[C@]12CC[C@@H]3c4ccc(B(O)O)cc4C[C@@H](CCCCCCCCC[S+]([O-])CCCC(F)(F)C(F)(F)F)[C@H]3[C@@H]1CC[C@@H]2O (stereo partly shown) [ZB716, fulvestrant-3-boronic acid] the listed Cmax is 1420
